This collection of values is drawn from ChEMBL document CHEMBL1201861.

Please go through the items and note down their IC50.
test system: SW 954; experiment: cells; type: functional, cell-based, Homo sapiens; details: Homo sapiens, SW 954;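 note: growth inhibition of SW954 human cancer cells, read out as cell viability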
Description: SANGER: Inhibition of human SW954 cell growth in a cell viability assay.

IC50 for CC(=O)O[C@@H]1[C@@H](OC(C)=O)[C@@H](O)[C@H](Oc2c(-c3ccc(O)cc3)oc3cc(O)cc(O)c3c2=O)O[C@H]1C ?
> 10 µM

Also need CNC(=O)c1cc(Oc2ccc(NC(=O)Nc3ccc(Cl)c(C(F)(F)F)c3)cc2)ccn1 , thanks.
> 4 µM

Also need O=C1N=C(NCc2cccs2)S/C1=C\c1ccc2ncccc2c1 , thanks.
> 5 µM

Also need Cn1cc(C2=C(c3ccc(Cl)cc3Cl)C(=O)NC2=O)c2ccccc21 , thanks.
> 10 µM

###

tested on: SW 962; test: cells; format: functional, cell-based, Homo sapiens; conditions: Homo sapiens, SW 962;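 note: growth inhibition of human SW962 cells, read out by a cell viability assay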
Description: SANGER: Inhibition of human SW962 cell growth in a cell viability assay.
Please go through the items and note down their IC50.
Supply the numeric figure in µM, leaving out any unit text.

IC50 for COC(=O)CNC(=O)C(=O)OC ?
265

Also need COc1cc(F)c(F)c(Nc2ccc(I)cc2F)c1NS(=O)(=O)C1(CC(O)CO)CC1 (stereo not given) , thanks.
1.5

###

test system: SW1783; assay: cells; assay type: functional, cell-based; conditions: Homo sapiens;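 note: cell growth inhibition measured with a viability assay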
Description: SANGER: Inhibition of human SW1783 cell growth in a cell viability assay.
Please go through the items and note down their IC50.
Supply the numeric figure in µM, leaving out any unit text.

IC50 for COc1cc([C@@H]2c3cc4c(cc3[C@@H](O[C@@H]3O[C@@H]5CO[C@@H](C)O[C@H]5[C@H](O)[C@H]3O)[C@H]3COC(=O)[C@H]23)OCO4)cc(OC)c1O [ETOPOSIDE] ?
3.06

Also need CC(=O)O[C@@]12CO[C@@H]1C[C@H](O)[C@@]1(C)C(=O)[C@H](O)C3=C(C)[C@@H](OC(=O)[C@H](O)[C@@H](NC(=O)OC(C)(C)C)c4ccccc4)C[C@@](O)([C@@H](OC(=O)c4ccccc4)[C@H]21)C3(C)C [DOCETAXEL] , thanks.
0.0057

Also need C=CCNC1=C2C[C@@H](C)C[C@H](OC)[C@H](O)[C@@H](C)/C=C(\C)[C@H](OC(N)=O)[C@@H](OC)/C=C\C=C(/C)C(=O)NC(=CC1=O)C2=O [TANESPIMYCIN] , thanks.
0.34

###

test system: GDM-1; experiment: cells; format: functional, cell-based; conditions: Homo sapiens
Description: SANGER: Inhibition of human GDM-1 cell growth in a cell viability assay.
property measured: IC50

Please tell me: IC50 of CNC(=O)c1cc(Oc2ccc(NC(=O)Nc3ccc(Cl)c(C(F)(F)F)c3)cc2)ccn1 , system GDM-1?;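 note: cell viability readout used to measure growth inhibition of human GDM-1 cells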
907 nM

Also need C=CCc1cccc(/C=N/NC(=O)CN2CCN(Cc3ccccc3)CC2)c1O , thanks.
> 2560 nM

Also need CO[C@H]1C[C@@H]2CC[C@@H](C)[C@@](O)(O2)C(=O)C(=O)N2CCCC[C@H]2C(=O)O[C@H]([C@H](C)C[C@@H]2CC[C@@H](O)[C@H](OC)C2)CC(=O)[C@H](C)/C=C(\C)[C@@H](O)[C@@H](OC)C(=O)[C@H](C)C[C@H](C)/C=C/C=C/C=C/1C , thanks.
> 100 nM

Also need CS(=O)(=O)CCNCc1ccc(-c2ccc3ncnc(Nc4ccc(OCc5cccc(F)c5)c(Cl)c4)c3c2)o1 , thanks.
> 2000 nM

Also need Cc1cnc(-c2cnc(NCCNc3ccc(C#N)cn3)nc2-c2ccc(Cl)cc2Cl)[nH]1 , thanks.
> 2560 nM

Also need C[C@]1(O)C[C@@H](c2nc(-c3ccc4ccc(-c5ccccc5)nc4c3)c3c(N)nccn32)C1 , thanks.
137 nM

Also need CCC(=O)N1CCN(c2ccc(-n3c(=O)ccc4cnc5ccc(-c6cnc7ccccc7c6)cc5c43)cc2C(F)(F)F)CC1 , thanks.
372 nM

Also need C=C1C(=O)O[C@@H]2C3O[C@]3(C)CC/C=C(\C)CC[C@@H]12 (some centres undefined) , thanks.
> 5000 nM

Also need CC1=C2C[C@H]3[C@@H](CC=C4C[C@@H](O)CC[C@@]43C)[C@@H]2CC[C@]12O[C@@H]1C[C@H](C)CN[C@H]1[C@H]2C , thanks.
> 16000 nM

###

test system: MHH-CALL-2; assay: cells; format: functional, cell-based; conditions: Homo sapiens;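 note: growth inhibition of the cell line, read out in a cell viability assay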
Description: SANGER: Inhibition of human MHH-CALL-2 cell growth in a cell viability assay.
property measured: IC50

IC50 for COc1cc([C@@H]2c3cc4c(cc3[C@@H](O[C@@H]3O[C@@H]5CO[C@@H](C)O[C@H]5[C@H](O)[C@H]3O)[C@H]3COC(=O)[C@H]23)OCO4)cc(OC)c1O [ETOPOSIDE] ?
> 16000 nM

Also need Cc1cc(Nc2cc(N3CCN(C)CC3)nc(Sc3ccc(NC(=O)C4CC4)cc3)n2)n[nH]1 [TOZASERTIB] , thanks.
> 2000 nM

Also need CN1CCN(CCOc2cc(OC3CCOCC3)c3c(Nc4c(Cl)ccc5c4OCO5)ncnc3c2)CC1 [SARACATINIB] , thanks.
> 2000 nM

###

Please go through the items and note down their IC50.
test system: U-87 MG; assay: cells; assay type: functional, cell-based, U-87MG ATCC; conditions: Homo sapiens
Description: SANGER: Inhibition of human U-87-MG cell growth in a cell viability assay.

IC50 for CNC(=O)c1cc(Oc2ccc(NC(=O)Nc3ccc(Cl)c(C(F)(F)F)c3)cc2)ccn1 ?
> 4 µM

Also need Cc1cnc(-c2cnc(NCCNc3ccc(C#N)cn3)nc2-c2ccc(Cl)cc2Cl)[nH]1 , thanks.
> 2.56 µM

Also need COc1ccc(C2=N[C@@H](c3ccc(Cl)cc3)[C@@H](c3ccc(Cl)cc3)N2C(=O)N2CCNC(=O)C2)c(OC(C)C)c1 , thanks.
> 8 µM

Also need Cn1cncc1[C@@](N)(c1ccc(Cl)cc1)c1ccc2c(c1)c(-c1cccc(Cl)c1)cc(=O)n2C , thanks.
> 16 µM

###

tested on: ATN-1; experiment: cells; assay type: functional, cell-based; settings: Homo sapiens;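 note: growth inhibition of human ATN-1 cells, read out with a cell viability assay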
Description: SANGER: Inhibition of human ATN-1 cell growth in a cell viability assay.
pIC50: −log10 of the molar value.
Tag: label 1 if measured pIC50 is not below 6, label 0 if it is.

Decide: pIC50 of CCC1=C[C@@H]2CN(C1)Cc1c([nH]c3ccccc13)[C@@](C(=O)OC)(c1cc3c(cc1OC)N(C)[C@H]1[C@@](O)(C(=O)OC)[C@H](OC(C)=O)[C@]4(CC)C=CCN5CC[C@]31[C@@H]54)C2 [VINORELBINE] >= 6?
label 1

Also need Cn1cncc1[C@@](N)(c1ccc(Cl)cc1)c1ccc2c(c1)c(-c1cccc(Cl)c1)cc(=O)n2C [TIPIFARNIB] , thanks.
label 0

Also need O=C(NOCC1CC1)c1ccc(F)c(F)c1Nc1ccc(I)cc1Cl [CI-1040] , thanks.
label 0

Also need CN(c1ncccc1CNc1nc(Nc2ccc3c(c2)CC(=O)N3)ncc1C(F)(F)F)S(C)(=O)=O [PF-00562271] , thanks.
label 0

Also need CCc1nc(N)nc(N)c1-c1ccc(Cl)cc1 [PYRIMETHAMINE] , thanks.
label 0

Also need Cc1ccc(Nc2nccc(N(C)c3ccc4c(C)n(C)nc4c3)n2)cc1S(N)(=O)=O [PAZOPANIB] , thanks.
label 0

Also need CN1CCN(CCOc2cc(OC3CCOCC3)c3c(Nc4c(Cl)ccc5c4OCO5)ncnc3c2)CC1 [SARACATINIB] , thanks.
label 0

Also need Cc1cnc(-c2cnc(NCCNc3ccc(C#N)cn3)nc2-c2ccc(Cl)cc2Cl)[nH]1 [LADUVIGLUSIB] , thanks.
label 0

Also need Nc1ccn([C@@H]2O[C@H](CO)[C@@H](O)[C@@H]2O)c(=O)n1 [CYTARABINE] , thanks.
label 1

Also need CCC(=O)N1CCN(c2ccc(-n3c(=O)ccc4cnc5ccc(-c6cnc7ccccc7c6)cc5c43)cc2C(F)(F)F)CC1 [TORIN1] , thanks.
label 1

Also need C=C1C(=O)O[C@@H]2C3O[C@]3(C)CC/C=C(\C)CC[C@@H]12 (stereo partly drawn) , thanks.
label 0

###

test system: SN12C; assay: cells; assay type: functional, cell-based, Homo sapiens; conditions: Homo sapiens, SN12C
Description: SANGER: Inhibition of human SN12C cell growth in a cell viability assay.
Please go through the items and note down their IC50.

Please tell me: IC50 of Nc1ccn([C@@H]2O[C@H](CO)[C@@H](O)[C@@H]2O)c(=O)n1 , system SN12C?;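 note: growth inhibition of human SN12C cells, measured by a cell viability assay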
623 nM

Also need CN(Cc1cnc2nc(N)nc(N)c2n1)c1ccc(C(=O)N[C@@H](CCC(=O)O)C(=O)O)cc1 [METHOTREXATE] , thanks.
> 200 nM

Also need Cn1cc(C2=C(c3ccc(Cl)cc3Cl)C(=O)NC2=O)c2ccccc21 , thanks.
> 10000 nM

###

tested on: SCC-25; assay: cells; format: functional, cell-based, Homo sapiens; details: Homo sapiens, SCC-25;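 note: growth inhibition of SCC-25 cells, measured with a cell viability assay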
Description: SANGER: Inhibition of human SCC-25 cell growth in a cell viability assay.
property measured: pIC50
Scale explanation: pIC50 corresponds to minus log10 of a concentration expressed in moles per litre.

pIC50 for COC(=O)CNC(=O)C(=O)OC ?
2.91

Also need CC(=O)O[C@@]12CO[C@@H]1C[C@H](O)[C@@]1(C)C(=O)[C@H](O)C3=C(C)[C@@H](OC(=O)[C@H](O)[C@@H](NC(=O)OC(C)(C)C)c4ccccc4)C[C@@](O)([C@@H](OC(=O)c4ccccc4)[C@H]21)C3(C)C , thanks.
9.17
